Target: AXL (Homo sapiens)
Construct: endogenous in cells
Sequence (P30530 26-894): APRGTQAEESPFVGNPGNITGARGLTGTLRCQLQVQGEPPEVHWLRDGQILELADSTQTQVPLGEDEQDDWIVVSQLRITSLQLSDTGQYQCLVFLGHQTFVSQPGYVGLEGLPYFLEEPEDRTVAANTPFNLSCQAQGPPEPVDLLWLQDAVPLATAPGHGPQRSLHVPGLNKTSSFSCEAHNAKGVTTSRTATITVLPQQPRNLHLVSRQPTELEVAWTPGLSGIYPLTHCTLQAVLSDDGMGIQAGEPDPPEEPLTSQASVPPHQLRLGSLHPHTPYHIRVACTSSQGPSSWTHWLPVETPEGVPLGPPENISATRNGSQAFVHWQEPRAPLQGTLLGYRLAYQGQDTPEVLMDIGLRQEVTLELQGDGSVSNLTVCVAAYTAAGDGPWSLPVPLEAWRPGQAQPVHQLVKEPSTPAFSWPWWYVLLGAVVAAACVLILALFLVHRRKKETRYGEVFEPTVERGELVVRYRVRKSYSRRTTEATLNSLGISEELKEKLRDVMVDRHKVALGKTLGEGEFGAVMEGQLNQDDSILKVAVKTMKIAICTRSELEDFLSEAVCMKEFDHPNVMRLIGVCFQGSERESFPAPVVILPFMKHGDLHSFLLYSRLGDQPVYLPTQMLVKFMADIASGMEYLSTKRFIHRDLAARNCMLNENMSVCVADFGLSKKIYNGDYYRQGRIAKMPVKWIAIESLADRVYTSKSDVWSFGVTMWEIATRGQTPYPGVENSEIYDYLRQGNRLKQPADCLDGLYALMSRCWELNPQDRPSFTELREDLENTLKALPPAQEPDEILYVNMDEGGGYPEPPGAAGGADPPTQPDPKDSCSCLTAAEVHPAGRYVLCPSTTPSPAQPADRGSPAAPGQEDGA
Experiment: AXL autophosphorylation ELISA in A-172 cells
Conditions: cellular activity, Gas6-stimulated, phospho-AXL ELISA
Procedure: A-172 glioblastoma cells (ATCC #CRL-1620) were seeded at 2.5×10^5 cells/well onto 24-well plates (Greiner #662165), in DMEM (Thermo Fisher #11995-040) containing 10% FBS (Thermo Fisher #26140-079), 1% MEM NEAA (Thermo Fisher #11140-050), 1% GlutaMax (Thermo Fisher #35050-061) and 1% Penicillin Streptomycin (Thermo Fisher #15140-122). […] IC50 values were calculated by nonlinear regression analysis using a 4-parameter logistic curve fit in ActivityBase XE (IDBS).
pIC50: −log10 of the molar value.
For each entry below, report its pIC50 value.

Field: example entries. Status: answers known.
> print(dat)
                                   compound  recorded.measurement
1  Cn1cc(-c2ccc3c(Oc4ccc(NC(=O)C5(C(=O)Nc6ccc(F)cc6)CC5)cc4)ccnc3c2)cn1                ≥ 8.00
2  COc1cc2c(Oc3ccc(NC(=O)C4(C(=O)Nc5ccc(F)cc5)CC4)cc3)ccnc2cc1-c1cnn(C)c1                ≥ 8.00
3  Cn1ccc(-c2ccc3c(Oc4ccc(NC(=O)C5(C(=O)Nc6ccc(F)cc6)CC5)cc4)ccnc3c2)n1          7.00 to 8.00
4  Cc1cnn(-c2ccc3c(Oc4ccc(NC(=O)C5(C(=O)Nc6ccc(F)cc6)CC5)cc4)ccnc3c2)c1          6.52 to 7.00
5  O=C(Nc1ccc(F)cc1)C1(C(=O)Nc2ccc(Oc3ccnc4cc(-c5ccn(CF)n5)ccc34)cc2)CC1          7.00 to 8.00
6  Cc1noc(C)c1-c1ccc2c(Oc3ccc(NC(=O)C4(C(=O)Nc5ccc(F)cc5)CC4)cc3)ccnc2c1          6.52 to 7.00
7  O=C(Nc1ccc(F)cc1)C1(C(=O)Nc2cc(F)c(Oc3ccnc4cc(-c5cnn(C(F)F)c5)ccc34)cc2F)CC1                ≥ 8.00
8  COc1cc(-c2ccc3c(Oc4ccc(NC(=O)C5(C(=O)Nc6ccc(F)cc6)CC5)cc4)ccnc3c2)ccn1          7.00 to 8.00

Can you give me pIC50 for all of these, one by one?
1. O=C(Nc1ccc(F)cc1)C1(C(=O)Nc2ccc(Oc3ccnc4cc(-c5cncc(F)c5)ccc34)cc2)CC1
2. Cc1cc2c(Oc3ccc(NC(=O)C4(C(=O)Nc5ccc(F)cc5)CC4)cc3)ccnc2cc1-c1ccn(C)n1
3. CC1Cc2cc(F)ccc2N1C(=O)C1(C(=O)Nc2ccc(Oc3ccnc4cc(-c5cnn(C)c5)ccc34)cc2)CC1 (stereo not shown)
4. O=C(Nc1ccc(F)cc1)C1(C(=O)Nc2ccc(Oc3ccnc4cc(-c5cnn(C(F)F)c5)ccc34)c(F)c2)CC1

OUTPUT:
1. 7.00 to 8.00
2. 7.00 to 8.00
3. 7.00 to 8.00
4. ≥ 8.00

INPUT: Query: pIC50; subject: `Cc1cc2c(Oc3cc(F)c(NC(=O)C4(C(=O)Nc5ccc(F)cc5)CC4)cc3F)ccnc2cc1-c1cnn(C)c1`
OUTPUT: 7.00 to 8.00
